experiment: Inhibition of HIV integrase after 2 hrs by combined strand transfer assay; set-up: species or system Human immunodeficiency virus; conditions: read-out: IC50
Let's look at some compounds and their measured IC50.
ASSAY_READOUT: IC50 (nM)

LINE_NOTATION | ASSAY_READOUT | REPORTED_RESULT
CC(=O)c1cc(N2CCOCC2)cn2c(=O)c(O)c(-c3ncc(Cc4ccc(F)cc4)s3)nc12 | IC50 | 15
O=c1c(O)c(-c2ncc(Cc3ccc(F)cc3)s2)nc2c(Br)cc(N3CCOCC3)cn12 | IC50 | 42
CC(C)N1CCN(c2cc(N3CCOCC3)cn3c(=O)c(O)c(-c4ncc(Cc5ccc(F)cc5)s4)nc23)C1=O | IC50 | 19
O=c1c(O)c(-c2ncc(Cc3ccc(F)cc3)s2)nc2ccc(N3CCOCC3)cn12 | IC50 | 20
O=C(c1cc(N2CCOCC2)cn2c(=O)c(O)c(-c3ncc(Cc4ccc(F)cc4)s3)nc12)N1CCCC1 | IC50 | 70
O=c1c(O)c(-c2ncc(Cc3ccc(F)cc3)s2)nc2c(N3CCCS3(=O)=O)cc(N3CCOCC3)cn12 | IC50 | 48
CC(C)N1CCN(c2cc(N3CCN(C)C3=O)c3nc(-c4ncc(Cc5ccc(F)cc5)s4)c(O)c(=O)n3c2)CC1 | IC50 | 19
CN1CCN(c2cc(N(C)C)cn3c(=O)c(O)c(-c4ncc(Cc5ccc(F)cc5)s4)nc23)C1=O | IC50 | 90
O=C1OCCN1c1cc(N2CCOCC2)cn2c(=O)c(O)c(-c3ncc(Cc4ccc(F)cc4)s3)nc12 | IC50 | 26
CN1CCN(c2cc(CN3CCOCC3)cn3c(=O)c(O)c(-c4ncc(Cc5ccc(F)cc5)s4)nc23)C1=O | IC50 | 25
CN1CCN(c2cc(N3CCOCC3)cn3c(=O)c(O)c(-c4ncc(Cc5ccc(F)cc5)s4)nc23)C1=O | IC50 | 47
CN1CCN(c2cc(N3CCOCC3)cn3c(=O)c(O)c(-c4ncc(Cc5ccc(F)cc5)s4)nc23)S1(=O)=O | IC50 | 38

###

tested on: Human immunodeficiency virus; assay: Antiviral activity against raltegravir-resistant HIV expressing integrase Q148H/G140S mutant infected in HEK293T cells after 48 hrs by luciferase reporter gene assay; format: functional, organism-based; details: Human immunodeficiency virus 1, HEK-293T
pEC50: −log10 of the molar value.

MOLECULE | MEASURED_TARGET | pEC50
O=C1CCCN1c1cc(N2CCOCC2)cn2c(=O)c(O)c(-c3ncc(Cc4ccc(F)cc4)s3)nc12 | Human immunodeficiency virus | 6.47
CC(c1cc(N2CCOCC2)cn2c(=O)c(O)c(-c3ncc(Cc4ccc(F)cc4)s3)nc12)N1CCCCC1 (stereo not given) | Human immunodeficiency virus | 5.26
O=c1c(O)c(-c2ncc(Cc3ccc(F)cc3)s2)nc2c(Br)cc(N3CCOCC3)cn12 | Human immunodeficiency virus | 5.60
CC(C)N1CCN(c2cc(N3CCN(C)C3=O)c3nc(-c4ncc(Cc5ccc(F)cc5)s4)c(O)c(=O)n3c2)CC1 | Human immunodeficiency virus | 7.68
CC(O)c1cc(N2CCOCC2)cn2c(=O)c(O)c(-c3ncc(Cc4ccc(F)cc4)s3)nc12 (stereo not given) | Human immunodeficiency virus | 6.10

###

test system: Human immunodeficiency virus; assay: Antiviral activity against raltegravir-resistant HIV expressing integrase Q148H/G140S mutant infected in HEK293T cells after 48 hrs by luciferase reporter gene assay; assay type: functional, organism-based; conditions: Human immunodeficiency virus 1, HEK-293T
pEC50: −log10 of the molar value.

COMPOUND | CMP | pEC50
CN1CCN(c2cc(N(C)C)cn3c(=O)c(O)c(-c4ncc(Cc5ccc(F)cc5)s4)nc23)C1=O | = | 7.03
O=C(c1cc(N2CCOCC2)cn2c(=O)c(O)c(-c3ncc(Cc4ccc(F)cc4)s3)nc12)N1CCCC1 | = | 5.93
CN1CCN(c2cc(N3CCOCC3)cn3c(=O)c(O)c(-c4ncc(Cc5ccc(F)cc5)s4)nc23)S1(=O)=O | = | 6.95
O=C1OCCCN1c1cc(N2CCOCC2)cn2c(=O)c(O)c(-c3ncc(Cc4ccc(F)cc4)s3)nc12 | = | 7.78
CC(NC1CC1)c1cc(N2CCN(C)C2=O)c2nc(-c3ncc(Cc4ccc(F)cc4)s3)c(O)c(=O)n2c1 (configuration not stated) | = | 6.57
CN1CCN(c2cc(N3CCOCC3)cn3c(=O)c(O)c(-c4ncc(Cc5ccc(F)cc5)s4)nc23)C1=O | = | 7.15
CC(C)N(C)C(=O)Nc1cc(N2CCOCC2)cn2c(=O)c(O)c(-c3ncc(Cc4ccc(F)cc4)s3)nc12 | < | 5.00
O=c1c(O)c(-c2ncc(Cc3ccc(F)cc3)s2)nc2ccc(N3CCOCC3)cn12 | = | 5.52
COc1cc(N2CCOCC2)cn2c(=O)c(O)c(-c3ncc(Cc4ccc(F)cc4)s3)nc12 | = | 5.23
O=C1OCCN1c1cc(N2CCOCC2)cn2c(=O)c(O)c(-c3ncc(Cc4ccc(F)cc4)s3)nc12 | = | 6.97
CN1CCCN(c2cc(N3CCOCC3)cn3c(=O)c(O)c(-c4ncc(Cc5ccc(F)cc5)s4)nc23)C1=O | = | 7.47
CN1CCN(c2cc(N3CCNCC3=O)cn3c(=O)c(O)c(-c4ncc(Cc5ccc(F)cc5)s4)nc23)C1=O | = | 5.96
CC(C)N(C)C(=O)N(C)c1cc(N2CCOCC2)cn2c(=O)c(O)c(-c3ncc(Cc4ccc(F)cc4)s3)nc12 | = | 6.92
CN1CCN(c2cc(CN3CCOCC3)cn3c(=O)c(O)c(-c4ncc(Cc5ccc(F)cc5)s4)nc23)C1=O | = | 6.61
CC(C)N1CCN(c2cc(N3CCOCC3)cn3c(=O)c(O)c(-c4ncc(Cc5ccc(F)cc5)s4)nc23)C1=O | = | 7.74
O=c1c(O)c(-c2ncc(Cc3ccc(F)cc3)s2)nc2c(N3CCCS3(=O)=O)cc(N3CCOCC3)cn12 | = | 6.55
CC(=O)c1cc(N2CCOCC2)cn2c(=O)c(O)c(-c3ncc(Cc4ccc(F)cc4)s3)nc12 | = | 6.05
